# ASSAY_SYSTEM: T1, Dpo1 exo- (SsoDpo1, B-family DNA polymerase) (Sulfolobus solfataricus, UniProt P26811 1-882, D231A;D318A)
# T1 sequence: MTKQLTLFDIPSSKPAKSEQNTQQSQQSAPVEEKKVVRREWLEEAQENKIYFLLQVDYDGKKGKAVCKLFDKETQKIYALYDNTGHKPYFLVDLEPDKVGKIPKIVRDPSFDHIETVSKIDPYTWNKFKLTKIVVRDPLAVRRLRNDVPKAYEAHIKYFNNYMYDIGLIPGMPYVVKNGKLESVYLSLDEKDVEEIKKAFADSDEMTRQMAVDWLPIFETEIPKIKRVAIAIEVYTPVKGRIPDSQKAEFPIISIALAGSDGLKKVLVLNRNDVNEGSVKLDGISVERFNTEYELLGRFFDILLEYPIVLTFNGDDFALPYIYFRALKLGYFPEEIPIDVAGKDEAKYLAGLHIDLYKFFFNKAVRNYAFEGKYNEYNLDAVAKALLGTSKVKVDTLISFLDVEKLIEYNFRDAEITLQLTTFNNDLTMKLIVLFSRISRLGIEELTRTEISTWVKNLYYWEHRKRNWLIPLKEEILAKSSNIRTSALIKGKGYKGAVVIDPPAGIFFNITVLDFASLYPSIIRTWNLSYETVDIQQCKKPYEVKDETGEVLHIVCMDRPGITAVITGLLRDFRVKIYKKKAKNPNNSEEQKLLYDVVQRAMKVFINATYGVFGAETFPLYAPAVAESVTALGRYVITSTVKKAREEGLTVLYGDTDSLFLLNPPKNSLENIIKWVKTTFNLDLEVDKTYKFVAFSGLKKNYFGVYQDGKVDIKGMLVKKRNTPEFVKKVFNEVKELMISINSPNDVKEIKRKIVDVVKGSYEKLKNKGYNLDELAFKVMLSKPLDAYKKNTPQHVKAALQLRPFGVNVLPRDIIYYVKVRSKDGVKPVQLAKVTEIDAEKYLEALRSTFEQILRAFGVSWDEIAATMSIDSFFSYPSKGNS
# RUN_DESCRIPTION: fluorescence anisotropy
MEASURE: Kd (nM)
One number for each entry, in nM.

Sample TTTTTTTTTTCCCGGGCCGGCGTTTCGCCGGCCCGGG (structured_DNA) [37-nt hairpin primer-template, 5'-Cy3] ; Kd observed: 208
